Here's a batch of compounds along with measured IC50 for CREBBP (Homo sapiens, UniProt Q92793).
reportedEndpoint: IC50 (nM)

{"compound": "CC(C)(O)c1ccc(C2(C(=O)N3C[C@H](F)C[C@@H]3C(=O)Nc3ccc4[nH]ncc4n3)CCCCC2)cc1 [Example 81a]", "IC50 (nM)": 83}

a. COC(=O)c1ccc(C2(C(=O)N3C[C@H](F)C[C@@H]3C(=O)Nc3ccc4[nH]ncc4n3)CCCCC2)cc1 [Example 81b]
b. O=C(Nc1ccc2[nH]ncc2n1)[C@H]1C[C@@H](F)CN1C(=O)C1(c2ccc(-c3ccccc3)c(F)c2)CCC(F)(F)CC1 [Example 94]
Q: IC50 comparison. Which is larger, a or b ? Please identify the chosen entry by its label.
Ans: b
(b: 305 nM, a: 64 nM)

###

System: TE-8 cells
# GI50 per entry
Could you give me the number in nM? Just the number is fine.

The examples below pair each entry with its known result.
{"chemicalStructure": "COc1ccc(C2(C(=O)N(C)[C@@H](C(=O)Nc3ccc4[nH]ncc4n3)[C@@H](C)O)CCC(F)(F)CC2)cc1", "GI50 (nM)": 4630}
{"chemicalStructure": "COc1ccc(C2(C(=O)N3CCC[C@@H]3C(=O)Nc3ccc4[nH]ncc4c3)CCCC2)cc1", "GI50 (nM)": 4060}
{"chemicalStructure": "O=C(Nc1ccc2[nH]ncc2n1)[C@H]1C[C@@H](F)CN1C(=O)C1(c2ccc(O)cc2)CCCCC1", "GI50 (nM)": 89.3}
{"chemicalStructure": "CS(=O)(=O)Nc1ccc(C2(C(=O)N3C[C@H](F)C[C@@H]3C(=O)Nc3ccc4[nH]ncc4n3)CCC(F)(F)CC2)cc1", "GI50 (nM)": 439}
{"chemicalStructure": "COc1ccc(C2(C(=O)N3CCC[C@@H]3C(=O)Nc3cccc4[nH]ncc34)CCC2)cc1", "GI50 (nM)": 6060}

Q: Give the measured GI50 for O=C(Nc1ccc2[nH]ncc2n1)[C@H]1C[C@@H](F)CN1C(=O)C1(c2ccc(OC(F)F)c(F)c2)CCC(F)(F)CC1
Ans: 491

Q: Annotate the molecule COc1cccc(C2(C(=O)N3C[C@H](F)C[C@@H]3C(=O)Nc3ccc4[nH]ncc4n3)CCC(F)(F)CC2)c1 with its measured GI50.
Ans: 1050

Q: In one line, give reported GI50 of the entry O=C(Nc1ccc2[nH]ncc2n1)[C@H]1C[C@@H](F)CN1C(=O)C1(c2ccc(NS(=O)(=O)c3ccccc3)cc2)CCC(F)(F)CC1 .
Ans: 656

Q: Please give the documented GI50 of COc1ccc(C2(C(=O)N3C[C@H](F)C[C@@H]3C(=O)Nc3ccc4[nH]ccc4n3)CCCCC2)cc1
Ans: 288

Q: // Input: COc1ccc(C2(C(=O)N3C[C@H](F)C[C@@H]3C(=O)Nc3ccc4[nH]c(C)cc4n3)CCC(F)(F)CC2)cc1 . Output its GI50 only.
Ans: 1180

Q: Supply recorded GI50 for COc1ccc(C2(C(=O)N3CS(=O)(=O)C[C@@H]3C(=O)Nc3ccc4[nH]ccc4n3)CCCC2)cc1 here.
Ans: 151

###

assayedTarget: CREBBP (Homo sapiens, UniProt Q92793)
Sequence (Q92793 whole entry): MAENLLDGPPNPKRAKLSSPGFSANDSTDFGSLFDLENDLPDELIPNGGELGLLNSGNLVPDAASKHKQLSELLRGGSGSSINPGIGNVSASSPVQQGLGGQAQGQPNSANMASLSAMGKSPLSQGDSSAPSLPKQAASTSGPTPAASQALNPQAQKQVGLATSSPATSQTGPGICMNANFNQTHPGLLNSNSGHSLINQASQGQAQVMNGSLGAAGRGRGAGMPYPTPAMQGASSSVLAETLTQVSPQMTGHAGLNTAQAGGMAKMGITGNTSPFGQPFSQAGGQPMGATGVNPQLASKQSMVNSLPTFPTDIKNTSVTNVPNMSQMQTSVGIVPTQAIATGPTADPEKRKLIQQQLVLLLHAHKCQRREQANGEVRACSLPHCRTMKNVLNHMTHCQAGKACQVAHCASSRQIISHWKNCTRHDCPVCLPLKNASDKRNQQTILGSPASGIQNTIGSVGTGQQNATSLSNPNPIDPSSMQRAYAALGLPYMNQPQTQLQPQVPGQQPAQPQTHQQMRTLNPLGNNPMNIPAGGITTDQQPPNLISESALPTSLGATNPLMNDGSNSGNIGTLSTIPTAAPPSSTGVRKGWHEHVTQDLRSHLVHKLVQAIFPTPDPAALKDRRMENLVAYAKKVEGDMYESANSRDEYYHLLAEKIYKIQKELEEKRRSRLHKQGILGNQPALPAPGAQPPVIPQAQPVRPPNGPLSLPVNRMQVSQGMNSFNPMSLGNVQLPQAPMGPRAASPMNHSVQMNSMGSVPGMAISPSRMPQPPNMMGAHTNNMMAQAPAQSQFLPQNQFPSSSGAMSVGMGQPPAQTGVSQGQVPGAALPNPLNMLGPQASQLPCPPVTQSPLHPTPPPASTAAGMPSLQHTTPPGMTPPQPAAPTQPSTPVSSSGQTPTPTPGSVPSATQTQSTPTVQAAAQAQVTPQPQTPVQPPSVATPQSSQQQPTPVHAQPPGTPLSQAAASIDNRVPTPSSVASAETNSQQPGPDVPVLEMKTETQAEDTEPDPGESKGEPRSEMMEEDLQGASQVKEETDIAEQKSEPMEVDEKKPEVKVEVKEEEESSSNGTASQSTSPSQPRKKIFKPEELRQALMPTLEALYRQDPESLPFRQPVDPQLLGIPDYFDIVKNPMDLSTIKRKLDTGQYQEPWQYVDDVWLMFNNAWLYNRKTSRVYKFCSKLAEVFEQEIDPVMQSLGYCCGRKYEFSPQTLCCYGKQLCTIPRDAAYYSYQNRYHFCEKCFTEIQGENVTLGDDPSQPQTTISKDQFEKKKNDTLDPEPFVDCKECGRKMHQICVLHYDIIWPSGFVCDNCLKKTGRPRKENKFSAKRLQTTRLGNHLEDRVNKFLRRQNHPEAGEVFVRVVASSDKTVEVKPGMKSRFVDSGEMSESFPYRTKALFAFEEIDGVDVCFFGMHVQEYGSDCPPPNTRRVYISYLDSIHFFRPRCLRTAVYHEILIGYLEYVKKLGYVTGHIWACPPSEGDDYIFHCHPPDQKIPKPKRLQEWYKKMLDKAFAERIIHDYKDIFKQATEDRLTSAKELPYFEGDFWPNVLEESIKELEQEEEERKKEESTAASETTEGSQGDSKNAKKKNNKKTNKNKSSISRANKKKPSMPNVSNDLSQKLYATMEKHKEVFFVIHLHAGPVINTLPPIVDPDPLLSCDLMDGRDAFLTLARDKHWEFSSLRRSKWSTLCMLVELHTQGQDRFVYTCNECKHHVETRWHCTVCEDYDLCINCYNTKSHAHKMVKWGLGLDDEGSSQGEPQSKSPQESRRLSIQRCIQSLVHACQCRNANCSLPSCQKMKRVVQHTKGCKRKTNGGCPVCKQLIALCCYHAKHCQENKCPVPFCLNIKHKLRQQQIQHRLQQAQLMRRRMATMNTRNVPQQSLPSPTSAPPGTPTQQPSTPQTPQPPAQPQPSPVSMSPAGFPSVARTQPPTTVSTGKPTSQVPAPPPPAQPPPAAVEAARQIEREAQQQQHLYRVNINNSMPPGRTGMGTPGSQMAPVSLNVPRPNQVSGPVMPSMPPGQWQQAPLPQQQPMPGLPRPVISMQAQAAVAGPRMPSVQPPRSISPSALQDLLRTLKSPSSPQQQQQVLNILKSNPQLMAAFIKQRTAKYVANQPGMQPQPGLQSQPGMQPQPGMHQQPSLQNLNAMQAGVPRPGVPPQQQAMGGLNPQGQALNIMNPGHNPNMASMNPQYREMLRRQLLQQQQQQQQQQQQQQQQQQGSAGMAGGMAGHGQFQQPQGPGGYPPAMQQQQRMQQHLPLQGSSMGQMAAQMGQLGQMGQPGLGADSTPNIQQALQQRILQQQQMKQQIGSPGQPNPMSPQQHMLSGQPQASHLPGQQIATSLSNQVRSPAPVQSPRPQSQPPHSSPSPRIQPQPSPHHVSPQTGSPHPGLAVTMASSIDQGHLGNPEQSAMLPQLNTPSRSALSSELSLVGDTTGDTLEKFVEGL
reportedEndpoint: IC50 (nM)

Consider the following illustrative entries.
{"compound": "O=C(Nc1ccc2[nH]ncc2n1)[C@H]1C[C@@H](F)CN1C(=O)C1(c2ccc(OCC(F)(F)F)c(F)c2)CC(F)(F)C1", "IC50, nM": 82}
{"compound": "COc1ccc(C2(C(=O)N3CCC[C@@H]3C(=O)Nc3cccc4[nH]ncc34)CCCCCC2)cc1", "IC50, nM": 201}
{"compound": "COc1ccc(C2(C(=O)N3CCOCC(Cc4cccc5[nH]ncc45)C3)CCCC2)cc1 (single isomer, unassigned) [Example 108b]", "IC50, nM": 83}
{"compound": "COc1ccc(C2(C(=O)N3C[C@H](F)C[C@@H]3C(=O)Nc3ccc4c(n3)CC(=O)N4)CCCCC2)cc1", "IC50, nM": 73}
{"compound": "O=C(Nc1ccc2[nH]ncc2n1)[C@H]1C[C@@H](F)CN1C(=O)C1(c2ccc(OCF)c(F)c2)CCC(F)(F)CC1", "IC50, nM": 53}

I. O=C(Nc1ccc2[nH]ncc2n1)[C@H]1C[C@@H](F)CN1C(=O)C1(c2ccc(OC(F)F)cc2)CCC(F)(F)CC1
II. COc1ccc(C2(C(=O)N3CCC[C@@H]3C(=O)Nc3ccc4[nH]ccc4c3)CCCC2)cc1
Q: Which value of IC50 is numerically greater: that of I or that of II ? Label of pick, please.
Ans: II
(II: 237 nM, I: 39 nM)
